ASSAY_SYSTEM: Type-1 angiotensin II receptor (Bos taurus, UniProt P25104)
Sequence (P25104 whole entry): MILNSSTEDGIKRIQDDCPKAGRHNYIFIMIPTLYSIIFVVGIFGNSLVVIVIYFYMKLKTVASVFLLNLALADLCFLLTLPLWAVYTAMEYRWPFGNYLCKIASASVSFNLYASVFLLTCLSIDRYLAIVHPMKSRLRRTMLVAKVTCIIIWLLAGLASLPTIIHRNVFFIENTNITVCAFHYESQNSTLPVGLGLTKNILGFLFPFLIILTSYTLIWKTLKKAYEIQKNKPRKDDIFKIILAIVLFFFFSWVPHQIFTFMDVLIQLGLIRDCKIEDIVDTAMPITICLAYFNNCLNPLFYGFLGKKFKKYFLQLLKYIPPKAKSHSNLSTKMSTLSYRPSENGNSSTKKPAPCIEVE
MEASUREMENT_DESCRIPTION: Displacement of [125I]angiotensin 2 from type-1 angiotensin 2 receptor in Bos taurus (bovine) adrenal cortical membrane
CONDITION: read-out: IC50
pIC50: −log10 of the molar value.
ASSAY_READOUT: pIC50

In the examples that follow, each entry is paired with its recorded pIC50.
1) CCCCc1nc2cc(OC)ccc2n1Cc1ccc(-c2ccccc2-c2nn[nH]n2)cc1
6.04
2) CCCCc1nc2ccc(C(=O)OC)cc2n1Cc1ccc(-c2ccccc2-c2nn[nH]n2)cc1
6.36
3) CCCCc1nc2cccc(C(=O)NC(C)C)c2n1Cc1ccc(-c2ccccc2-c2nn[nH]n2)cc1
6.27
4) CCCCc1nc2cccc(CC(=O)OCC)c2n1Cc1ccc(-c2ccccc2-c2nn[nH]n2)cc1
6.60
5) CCCCc1nc2cccc(C(=O)OC)c2n1Cc1ccc(-c2ccccc2-c2nn[nH]n2)cc1
6.49
6) CCCCc1nc2ccccc2n1Cc1ccc(-c2ccccc2C(=O)O)cc1
5.96
7) CCCCc1nc2cccc(COC)c2n1Cc1ccc(-c2ccccc2-c2nn[nH]n2)cc1
6.22

(I) CCCCc1nc2cccc(OC)c2n1Cc1ccc(-c2ccccc2-c2nn[nH]n2)cc1
(II) CCCCc1nc2cccc(C)c2n1Cc1ccc(-c2ccccc2-c2nn[nH]n2)cc1
Problem: API: POST /compare with I and II ; response names the item with higher pIC50. Label of pick, please.
Result: II
